The values you see were collected from paper PMC9884143.

In this section, each of the binders is paired with its reported pKd.
target_desc: SARS-CoV-2 Spike receptor-binding domain (RBD), original strain (SARS-CoV-2, original strain, UniProt P0DTC2)
pKd (log units): -log10 of the concentration in mol/L.

Worked examples, 5 binders total:
Q) Fill in the blank: the reported pKd of CoV2-YD-37 (VHH) VHH: DVQLVESGGGLVQAGDSLRLSCTASGRTFTTNAMGWFRQAPGKEREFVAAISWNYDTTYYSDPVEGRFTISRSNAKNTVYLQMNSLKPDDTAVYYCTLRSRFNAAAWTTEAAFDYWGQGTQVTVS is ____.
A) 9.39

Q) Fill in the blank: the reported pKd of CoV2-YD-13 (VHH) VHH: QVQLVESGGGLVQAGGSLRLSCAASGFTFDDYAIGWFRQAPGKEREGVSCISSSGGFTNYADSVKGRFTISSDNAKNTVYLQMNSLKPEDTAVYYCAVVVNGYGLDEWAYDYWGQGTQVTVS is ____.
A) 8.61

Q) Which pKd is listed for CoV2-YD-35 (VHH) VHH: DVQLVESGGGLVQAGDSLRLSCTASGRTFTTNAMGWFRQAPGKEREFVAAISWSYGTTYYSDPVEGRFTISRSNAKNTVYLQMNSLKPDDTAVYYCTLRSRFNAAAWTTEAAFDYWGQGTQVTVS ?
A) 9.85

Q) Which pKd is listed for CoV2-YD-12 (VHH) VHH: QVQLVESGGGLVQAGGSLRLSCAASGSTFSRLNILWWRQAAGKPREWVATSTDGGTRNYAAAVKGRFTISRDNAKNTVYLQMNSLKPEDTAVYYCYTPDYWGQGTQVTVS ?
A) 9.84

Q) Form field: reported pKd of CoV2-YD-11 (VHH) VHH: QVQLVESGGGLVQAGGSLRLSCVVSGTTFSRYDMGWYRQAPGKARETVATISRSGTTNYAYFVKGRFTITRDNAKNTVYLQMNSLKPEDTAVYYCYIFGLDYWGQGTQVTVS
A) 9.75

Others:
Q) Consider the binder CoV2-YD-14 (VHH) VHH: QVQLVESGGGLVQAGGSLRLSCSASGNTFSTYSLSWYRQAPGKQREFVAAISSGGSTSYANSVKGRFSISRDNAKKTMYLQMNSLKPEDTAVYYCYVVTTLMDYWGQGTQVTVS and give its measured pKd.
A) 9.82

Q) Quick one: pKd for Rescue-1 (VHH) VHH: DVQLVESGGGLVQAGDSLRLSCTASGRTFTTNAMGWFRQAPGKEREFVAAITWSYGTTYYSDPVEGRFTISRDNAKNTVYLQMNSLKPEDTAVYYCFYERLAWDTSTYWGQGTQVTVS ?
A) 7.29

Q) Fill in the blank: the reported pKd of CoV2-YD-5 (VHH) VHH: QVQLVESGGGLVQAGGSLRLSCVASGTTISTYNLLWFRQAPGQQREWVASISSGGDTSYAGSVKGRFTISRDNTENTMYLQMNSLKPEDTAVYYCHGANAAHGMDYWGKGTQVTVS is ____.
A) 9.94

Q) Entry Rescue-3 (VHH) VHH: DVQLVESGGGLVQAGDSLRLSCTASGRTFTTNAMGWFRQAPGKEREFVAAISWNSGTTYYSDPVKGRFTISRDNAKNTVYLQMNSLKPEDTAVYYCFYERLAWDTSTYWGQGTQVTVS has what pKd?
A) 7.60

Q) # query: pKd of entry CoV2-YD-36 (VHH) VHH: QVQLVESGGGLVQAGDSLRLSCTASGRTFTTNAMGWFRQAPGKEREFVAAITWSYGTTYYSDPVEGRFTISRSNAKNTVYLQMNSLKPDDTAVYYCTLRSRFNAAAWTTEAAFDYWGQGTQVTVS
A) 9.81

Q) For the binder shown here, Rescue-2 (VHH) VHH: DVQLVESGGGLVQAGDSLRLSCTASGRTFTTNAMGWFRQAPGKEREFVAAISWNYDTTYYSDPVEGRFTISRDNAKNTVYLQMNSLKPEDTAVYYCFYERLAWDTSTYWGQGTQVTVS , give the reported pKd.
A) 7.57

Q) Return reported pKd; argument: CoV2-YD-38 (VHH) VHH: DVQLVESGGGLVQAGDSLRLSCAASGRTFTTNAMGWFRQAPGKEREFVAAISWNSGTTYYSDPVKGRFTISRDNAKNTVYLQMNSLKPGDTAVYYCTLRSRFNAYAWTTENAFDYWGQGTQVTVS
A) 9.25
